system: Protease type-XXIV; test: Screening of globulin component-selective protease inhibitors (HSA substrate with/without γ-globulin); type: biochemical, Bacillus; conditions: additive concentration 1.0%; control 23.8
observationType: Effect of γ-globulin (%)
Answers are plain numbers, in %.

Take a look at these entries with their results.
compound	measurementTarget	Effect of γ-globulin (%)
CCCCCCCCCCCC[N+](C)(C)C.[Cl-] [Lauryltrimethylammonium chloride]	Protease type-XXIV	16.7
C[N+](C)(C)Cc1ccccc1.[Cl-] [Benzyltrimethylammonium chloride]	Protease type-XXIV	23.2
C[C@H](CCC(=O)N(CCCNC(=O)[C@H](O)[C@@H](O)[C@H](O)[C@H](O)CO)CCCNC(=O)[C@H](O)[C@@H](O)[C@H](O)[C@H](O)CO)[C@H]1CC[C@H]2[C@@H]3CC[C@@H]4C[C@H](O)CC[C@]4(C)[C@H]3C[C@H](O)[C@]12C	Protease type-XXIV	19.9

I'm hoping you can list Effect of γ-globulin (%) for every compound here, please.
1. CC(CCC(=O)NCCC[N+](C)(C)CC(O)CS(=O)(=O)[O-])C1CCC2C3C(O)CC4CC(O)CCC4(C)C3CC(O)C12C (stereo not drawn)
2. CCCC[N+](CCCC)(CCCC)Cc1ccccc1.[Cl-] [Benzyltributylammonium chloride]
3. C[C@H](CCC(=O)N(CCCNC(=O)[C@H](O)[C@@H](O)[C@H](O)[C@H](O)CO)CCCNC(=O)[C@H](O)[C@@H](O)[C@H](O)[C@H](O)CO)[C@H]1CC[C@H]2[C@@H]3[C@H](O)C[C@@H]4C[C@H](O)CC[C@]4(C)[C@H]3C[C@H](O)[C@]12C

1. 18.0
2. 15.1
3. 21.0

---

target: albumin (Homo sapiens); construct: from tissue; host or cells: human blood serum (healthy persons, patients; albumin purified with boric acid-immobilized resin); assay: Albumin assay by BCP method after pretreatment with protein denaturing agent and/or compound having S—S bond; settings: pretreatment reagent at concentration of b299; immunological method 8.1, no pretreatment 7.9
Sequence (P02768 25-609): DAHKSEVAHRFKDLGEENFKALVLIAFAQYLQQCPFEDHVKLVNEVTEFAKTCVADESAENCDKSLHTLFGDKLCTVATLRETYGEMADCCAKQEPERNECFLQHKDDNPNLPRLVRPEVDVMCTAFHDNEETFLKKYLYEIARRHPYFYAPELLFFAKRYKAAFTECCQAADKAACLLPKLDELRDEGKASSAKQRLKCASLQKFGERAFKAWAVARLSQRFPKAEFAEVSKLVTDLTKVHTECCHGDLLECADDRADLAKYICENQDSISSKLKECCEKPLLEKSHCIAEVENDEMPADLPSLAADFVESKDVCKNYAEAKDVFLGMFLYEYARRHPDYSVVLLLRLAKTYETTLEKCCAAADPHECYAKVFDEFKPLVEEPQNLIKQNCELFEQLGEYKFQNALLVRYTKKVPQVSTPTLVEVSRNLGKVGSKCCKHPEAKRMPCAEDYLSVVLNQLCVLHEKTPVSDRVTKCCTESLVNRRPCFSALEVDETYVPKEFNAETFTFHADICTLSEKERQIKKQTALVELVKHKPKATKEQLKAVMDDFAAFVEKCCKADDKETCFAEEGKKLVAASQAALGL
observationType: albumin value by BCP method, sample GA
One number for each entry.

                                   compound  number
0  c1cc(SSc2ccncc2)ccn1 [Reagent 8, 4,4′-dithiopyridine]     7.5
1  O=C(O)CCSSCCC(=O)O [Reagent 2, 3,3′-dithiodipropionic acid]     7.9

I'm hoping you can list albumin value by BCP method, sample GA for every compound here, please.
1. O=C(O)c1cc(SSc2ccc([N+](=O)[O-])c(C(=O)O)c2)ccc1[N+](=O)[O-] [Reagent 5, 5,5′-dithiobis-(2-nitrobenzoic acid)]
2. C1CN(SSN2CCOCC2)CCO1 [Reagent 4, 4,4′-dithiodimorpholine]
3. O=C(O)c1ccccc1SSc1ccccc1C(=O)O [Reagent 3, 2,2′-dithiodibenzoic acid]

1. 8.7
2. 7.7
3. 7.7

---

system: heat-stable type ascorbic acid oxidase (ASO-312); assay: Effect of buffer agent types on stabilization of ascorbic acid oxidase ASO-312 in the presence of protease; format: biochemical; conditions: Pronase; pH 8.0; stored two days at room temperature
observationType: Relative activity (%) ASO-312
Value and unit, in that order.

>>> df
                                   molecule                observationtype  result
0  O=S(=O)(O)CC(O)CN1CCN(CCO)CC1 (centres unmarked)  Relative activity (%) ASO-312     34%
1  O=S(=O)(O)CC(O)CN1CCN(CC(O)CS(=O)(=O)O)CC1 (centres unmarked)  Relative activity (%) ASO-312     80%
2                                O=P(O)(O)O  Relative activity (%) ASO-312    108%
3                 O=S(=O)(O)CCN1CCN(CCO)CC1  Relative activity (%) ASO-312     37%

Relative activity (%) ASO-312 on heat-stable type ascorbic acid oxidase (ASO-312) for O=S(=O)(O)CCCN1CCN(CCO)CC1 is 31%

---

Task for the reader: assign each of the following compounds its reported Relative activity (%) ASO-311.
Biological target: Ascorbic acid oxidase (ASO-311) (Cucurbita maxima, UniProt P24792)
Sequence (P24792 31-579): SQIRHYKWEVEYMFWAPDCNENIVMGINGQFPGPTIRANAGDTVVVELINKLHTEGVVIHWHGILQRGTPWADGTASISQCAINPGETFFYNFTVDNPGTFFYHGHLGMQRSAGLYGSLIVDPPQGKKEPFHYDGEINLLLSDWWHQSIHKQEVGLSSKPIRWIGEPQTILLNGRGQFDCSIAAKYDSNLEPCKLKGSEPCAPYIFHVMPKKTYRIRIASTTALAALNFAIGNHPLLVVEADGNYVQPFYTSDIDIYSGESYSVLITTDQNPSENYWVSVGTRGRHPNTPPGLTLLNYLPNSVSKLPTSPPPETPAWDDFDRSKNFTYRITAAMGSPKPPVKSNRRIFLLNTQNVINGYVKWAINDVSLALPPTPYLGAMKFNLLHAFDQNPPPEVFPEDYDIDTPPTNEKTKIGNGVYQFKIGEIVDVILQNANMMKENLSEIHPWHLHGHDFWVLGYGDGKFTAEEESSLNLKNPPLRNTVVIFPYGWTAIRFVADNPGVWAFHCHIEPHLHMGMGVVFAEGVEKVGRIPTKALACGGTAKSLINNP
Settings: Protease type XXIV; pH 8.0; stored two days at room temperature
Answers are plain numbers, in %.

Take a look at these entries with their results.
                                   compound                observationtype  number
0  O=S(=O)(O)CC(O)CN1CCN(CC(O)CS(=O)(=O)O)CC1 (centres unmarked) [POPSO]  Relative activity (%) ASO-311      62
1         O=S(=O)(O)CCN1CCN(CCO)CC1 [HEPES]  Relative activity (%) ASO-311      31
2  O=P(O)(O)O [Phosphoric acid, phosphoric acid]  Relative activity (%) ASO-311      77
3  O=S(=O)(O)CC(O)CN1CCN(CCO)CC1 (centres unmarked) [HEPPSO]  Relative activity (%) ASO-311      37

Lookup result for O=S(=O)(O)CCCN1CCN(CCO)CC1 [EPPS] ; measured Relative activity (%) ASO-311: 35
